I'd appreciate it if you could supply IC50 values for the items below.
- study target: Insulin receptor (Homo sapiens)
- Sequence (P06213 28-758 limits assumed): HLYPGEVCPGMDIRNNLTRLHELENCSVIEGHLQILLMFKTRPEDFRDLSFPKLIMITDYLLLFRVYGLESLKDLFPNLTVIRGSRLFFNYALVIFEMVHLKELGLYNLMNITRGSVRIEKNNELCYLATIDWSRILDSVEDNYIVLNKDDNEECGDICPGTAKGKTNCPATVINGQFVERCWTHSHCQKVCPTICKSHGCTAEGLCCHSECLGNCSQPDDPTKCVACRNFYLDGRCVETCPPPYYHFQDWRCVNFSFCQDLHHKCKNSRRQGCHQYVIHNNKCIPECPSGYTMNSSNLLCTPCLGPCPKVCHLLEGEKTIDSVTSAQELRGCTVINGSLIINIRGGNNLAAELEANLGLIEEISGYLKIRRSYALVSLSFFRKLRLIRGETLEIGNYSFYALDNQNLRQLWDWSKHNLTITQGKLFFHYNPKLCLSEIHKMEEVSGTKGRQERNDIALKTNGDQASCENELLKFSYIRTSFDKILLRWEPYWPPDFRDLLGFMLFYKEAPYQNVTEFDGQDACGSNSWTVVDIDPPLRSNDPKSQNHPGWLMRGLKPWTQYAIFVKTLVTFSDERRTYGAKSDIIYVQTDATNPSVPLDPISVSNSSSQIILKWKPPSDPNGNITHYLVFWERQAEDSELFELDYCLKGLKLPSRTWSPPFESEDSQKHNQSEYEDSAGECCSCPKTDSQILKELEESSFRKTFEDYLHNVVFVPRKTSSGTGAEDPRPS
- Sequence (P06213 763-1382 limits assumed): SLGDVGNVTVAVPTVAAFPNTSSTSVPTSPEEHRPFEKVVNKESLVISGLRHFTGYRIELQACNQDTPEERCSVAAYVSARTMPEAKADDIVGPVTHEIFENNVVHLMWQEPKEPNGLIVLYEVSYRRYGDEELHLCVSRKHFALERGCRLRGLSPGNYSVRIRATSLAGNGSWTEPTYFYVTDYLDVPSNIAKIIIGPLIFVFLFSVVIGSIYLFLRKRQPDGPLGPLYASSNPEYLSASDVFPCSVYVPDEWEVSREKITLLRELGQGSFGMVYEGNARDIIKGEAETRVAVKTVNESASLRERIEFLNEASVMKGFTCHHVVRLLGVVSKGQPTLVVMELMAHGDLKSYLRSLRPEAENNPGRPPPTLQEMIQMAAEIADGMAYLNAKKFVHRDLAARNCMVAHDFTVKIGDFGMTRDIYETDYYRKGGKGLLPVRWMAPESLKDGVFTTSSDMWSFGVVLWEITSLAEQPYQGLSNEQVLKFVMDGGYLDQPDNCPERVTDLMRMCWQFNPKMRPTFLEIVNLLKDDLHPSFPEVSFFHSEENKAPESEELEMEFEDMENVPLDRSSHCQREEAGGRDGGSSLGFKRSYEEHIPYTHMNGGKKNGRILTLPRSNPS
- procedure summary: Inhibition of insulin receptor(IR)

// IC50 lookup, key: CN(C)CCNc1cc2c(Nc3cccc(Br)c3)ncnc2cn1
> 50 µM

Entry Brc1cccc(Nc2ncnc3cnc(NCCN4CCOCC4)cc23)c1 : reported IC50 = ?
> 50 µM

---

What IC50 was measured for each of the following?
- study target: Epidermal growth factor receptor (Homo sapiens)
- Sequence (P00533 whole entry): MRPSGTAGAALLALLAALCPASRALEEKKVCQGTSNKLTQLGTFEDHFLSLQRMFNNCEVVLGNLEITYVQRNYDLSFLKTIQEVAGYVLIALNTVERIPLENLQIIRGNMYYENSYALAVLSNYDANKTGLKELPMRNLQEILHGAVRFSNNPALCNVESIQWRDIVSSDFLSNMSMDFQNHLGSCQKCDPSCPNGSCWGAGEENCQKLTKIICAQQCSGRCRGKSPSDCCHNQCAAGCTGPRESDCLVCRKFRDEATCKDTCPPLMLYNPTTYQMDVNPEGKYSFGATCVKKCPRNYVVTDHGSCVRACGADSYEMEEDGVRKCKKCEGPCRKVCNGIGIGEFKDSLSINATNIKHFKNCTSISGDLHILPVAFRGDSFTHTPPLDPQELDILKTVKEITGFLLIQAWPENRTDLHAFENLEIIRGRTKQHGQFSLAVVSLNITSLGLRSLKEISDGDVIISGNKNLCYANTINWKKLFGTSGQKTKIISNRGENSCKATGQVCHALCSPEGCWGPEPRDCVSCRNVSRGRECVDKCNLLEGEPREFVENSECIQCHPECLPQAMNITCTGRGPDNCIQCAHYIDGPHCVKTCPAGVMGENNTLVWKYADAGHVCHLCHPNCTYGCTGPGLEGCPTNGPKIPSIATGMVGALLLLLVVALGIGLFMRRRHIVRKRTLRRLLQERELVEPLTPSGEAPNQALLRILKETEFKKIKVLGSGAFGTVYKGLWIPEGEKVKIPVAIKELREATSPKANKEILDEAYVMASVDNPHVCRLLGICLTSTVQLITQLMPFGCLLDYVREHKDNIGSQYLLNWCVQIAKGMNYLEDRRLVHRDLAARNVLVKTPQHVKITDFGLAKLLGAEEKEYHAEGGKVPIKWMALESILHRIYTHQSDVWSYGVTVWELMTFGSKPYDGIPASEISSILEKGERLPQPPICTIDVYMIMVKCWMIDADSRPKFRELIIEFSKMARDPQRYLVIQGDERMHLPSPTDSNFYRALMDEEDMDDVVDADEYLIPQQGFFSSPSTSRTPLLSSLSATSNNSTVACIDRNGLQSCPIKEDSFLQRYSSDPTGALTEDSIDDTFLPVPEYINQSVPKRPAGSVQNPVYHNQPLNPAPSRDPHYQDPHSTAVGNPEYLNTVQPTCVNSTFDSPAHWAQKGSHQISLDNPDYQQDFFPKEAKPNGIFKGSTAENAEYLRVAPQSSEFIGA
- procedure summary: Inhibition of tyrosine/glutamic acid copolymer phosphorylation by epidermal growth factor receptor prepared of human A431

What value of IC50 has been reported for the following compound? Brc1cccc(Nc2ncnc3cnc(NCCN4CCOCC4)cc23)c1
0.7 nM

Given the compound CN(C)CCNc1cc2c(Nc3cccc(Br)c3)ncnc2cn1 , what is its reported IC50?
1.1 nM

Which IC50 reading was recorded for the compound CCN(CC)CC(O)CNc1cc2c(Nc3cccc(Br)c3)ncnc2cn1 (stereo not drawn) ?
4.6 nM
